Where do the numbers come from? From patent US7528164B2.

Tested on: ZR-75-1
Experiment: Caspase cascade activation assay in ZR-75-1 cells (N-(Ac-DEVD)-N'-ethoxycarbonyl-R110 fluorogenic substrate)
Type: cell-based
Conditions: ZR-75-1 human breast cancer cells, 24 h incubation; ratio of net RFU of test compound to control
Listing: Caspase activity (Ratio) of selected compounds
Quick one: just the number, no unit, thanks!

Q: Report Caspase activity (Ratio) from ZR-75-1 testing of Cn1ccc2c3c(ccc21)C(c1ccc(Cl)c(Cl)c1)C(C#N)=C(N)O3 (stereo not shown) [Example 40E]
A: 3.2

Q: Report Caspase activity (Ratio) from ZR-75-1 testing of COc1cc(C2C(C#N)=C(N)Oc3c2ccc2c3ccn2C)cc(Br)c1O (stereo not shown)
A: 6.6

Q: Report Caspase activity (Ratio) from ZR-75-1 testing of CCC=CCC=CCC=CCC=CCC=CCC=CCCC(=O)OCn1ccc2c3c(ccc21)C(c1cncc(C)c1)C(C#N)=C(N)O3 (stereo not shown)
A: 6.2

Q: Report Caspase activity (Ratio) from ZR-75-1 testing of COc1cc(C2C(C#N)=C(N)Oc3c2ccc2c3ccn2C)cc(Br)c1OC (stereo not shown)
A: 11.7

###

Tested on: T-47D
Experiment: Caspase cascade activation assay in T-47D cells (N-(Ac-DEVD)-N'-ethoxycarbonyl-R110 fluorogenic substrate)
Format: cell-based
Conditions: T-47D human breast cancer cells, 24 h incubation; ratio of net RFU of test compound to control
Listing: Caspase activity (Ratio) of selected compounds
Quick one: just the number, no unit, thanks!

Below: 8 compounds and their reported Caspase activity (Ratio).
# COMPOUND, Caspase activity (Ratio)
data = [
    ("Cn1ccc2c3c(ccc21)C(c1cncc(Cl)c1)C(C#N)=C(N)O3 (stereo not drawn)", 5.1),
    ("CN1CCc2c1ccc1c2OC(N)=C(C#N)C1c1cc(F)cc(F)c1 (stereo not drawn)", 4.3),
    ("COc1cc(OC)cc(C2C(C#N)=C(N)Oc3c2ccc2c3ccn2C)c1 (stereo not drawn)", 5.2),
    ("Cn1ccc2c3c(ccc21)C(c1cnc2ccccc2n1)C(C#N)=C(N)O3 (stereo not drawn)", 5.6),
    ("Cn1ccc2c3c(ccc21)C(c1ccc(F)c(C#N)c1)C(C#N)=C(N)O3 (stereo not drawn) [Example 40J]", 3.6),
    ("Cn1ccc2c3c(ccc21)C(c1ccc(F)c(Br)c1)C(C#N)=C(N)O3 (stereo not drawn) [Example 40I]", 3.9),
    ("COc1cc(C2C(C#N)=C(N)Oc3c2ccc2c3ccn2C)cc(I)c1OC (stereo not drawn)", 6.3),
    ("Cn1ccc2c3c(ccc21)C(c1cnc(O)c(Cl)c1)C(C#N)=C(N)O3 (stereo not drawn)", 8.3),
]

Field: next compound
Q: Note down Caspase activity (Ratio) recorded for Cn1ccc2c3c(ccc21)C(c1ccc(F)c(F)c1)C(C#N)=C(N)O3 (stereo not drawn) [Example 40G]
A: 4.6

###

Listing: Caspase activity (Ratio) of selected compounds
Tested on: ZR-75-1
Assay: Caspase cascade activation assay in ZR-75-1 cells (N-(Ac-DEVD)-N'-ethoxycarbonyl-R110 fluorogenic substrate)
Format: cell-based
Conditions: ZR-75-1 human breast cancer cells, 24 h incubation; ratio of net RFU of test compound to control
Quick one: just the number, no unit, thanks!

# COMPOUND, NUMBER
records = [
    ("COc1cc(OC)cc(C2C(C#N)=C(N)Oc3c2ccc2c3ccn2CO)c1 (stereo not shown)", 3.9),
    ("COc1cc(C2C(C#N)=C(N)Oc3c2ccc2c3ccn2CO)cc(OC)c1OC (stereo not shown)", 3.0),
    ("Cc1cncc(C2C(C#N)=C(N)Oc3c2ccc2c3CCN2C)c1 (stereo not shown)", 6.3),
    ("Cn1ccc2c3c(ccc21)C(c1ccc(C#N)cc1)C(C#N)=C(N)O3 (stereo not shown) [Example 40B]", 4.2),
    ("Cn1ccc2c3c(ccc21)C(c1ccc(F)c(F)c1)C(C#N)=C(N)O3 (stereo not shown) [Example 40G]", 5.9),
]

Q: Note down Caspase activity (Ratio) recorded for COc1cc(C2C(C#N)=C(N)Oc3c2ccc2c3CCN2C)cc(Br)c1OC (stereo not shown)
A: 5.0

Q: Note down Caspase activity (Ratio) recorded for CC(C)n1ccc2c3c(ccc21)C(c1cc(Cl)cc(Cl)c1)C(C#N)=C(N)O3 (stereo not shown)
A: 2.6
